Below, each entry is listed alongside its reported MIC.
system: NRP Mtb H37Rv cells; test: Low-oxygen recovery assay (LORA) MIC; assay type: cell-based, Mycobacterium tuberculosis; details: Mycobacterium tuberculosis, H37RV; NRP Mtb; Tables 1-4 and text; read-out: LORA MIC - ITR
API: value field is a number in mg/L; no unit string.

Examples with their reported MIC follow.
Task item: MIC for CCCC(C)Nc1n[n+]([O-])c2ccccc2[n+]1[O-] (stereo not shown) [Compound 8h] ?
Reply: 0.99

Task item: MIC for [O-][n+]1nc(NC2CCCCC2)[n+]([O-])c2ccc(F)cc21 [Compound 15af] ?
Reply: 0.47

Task item: MIC for [O-][n+]1nc(N[C@@H]2C[C@H]3CC[C@@H]2C3)[n+]([O-])c2ccc(Cl)cc21 [Compound 15bm] ?
Reply: 0.23

Task item: MIC for CC(=O)Nc1cc(/C=C/c2ccc([N+](=O)[O-])o2)ns1 [Cmpd 2] ?
Reply: 3.7

Task item: MIC for CC1CCCCN1c1n[n+]([O-])c2cc3c(cc2[n+]1[O-])CCC3 (stereo not shown) [Compound 20w] ?
Reply: 0.47

Task item: MIC for Nc1n[n+]([O-])c2ccccc2[n+]1[O-] [TPZ, tirapazamine, reference compound] ?
Reply: 7.3

Task item: MIC for O=C1CN(/N=C/c2ccc([N+](=O)[O-])o2)C(=O)N1 [Nitrofurantoin, reference compound] ?
Reply: 32

Task item: MIC for C[C@@H](Nc1n[n+]([O-])c2ccccc2[n+]1[O-])C1CCCCC1 [Compound 8k] ?
Reply: 0.36

Task item: MIC for Cc1cccc2c1[n+]([O-])c(NC1CCC1)n[n+]2[O-] [Compound 15ed] ?
Reply: 0.43

Task item: MIC for CO[C@H]1/C=C/O[C@@]2(C)Oc3c(C)c(O)c4c(O)c(c(/C=N/N5CCN(C)CC5)c(O)c4c3C2=O)NC(=O)/C(C)=C\C=C\[C@H](C)[C@H](O)[C@@H](C)[C@@H](O)[C@@H](C)[C@H](OC(C)=O)[C@@H]1C [RIF, Rifampin, reference compound] ?
Reply: 2

Further cases:
Task item: MIC for Cc1cccc2c1[n+]([O-])c(NC1CCCC1)n[n+]2[O-] [Compound 15ee] ?
Reply: 0.27

Task item: MIC for CCC(COC)Nc1n[n+]([O-])c2cc(F)ccc2[n+]1[O-] (stereo not shown) [Compound 15ai] ?
Reply: 1.9

Data credit: patent US9663478B2
